- targetOfAssay: p38 kinase (Homo sapiens)
- Construct: GST (N); made in house; host or cells: E. coli
- Sequence (Q16539 whole entry): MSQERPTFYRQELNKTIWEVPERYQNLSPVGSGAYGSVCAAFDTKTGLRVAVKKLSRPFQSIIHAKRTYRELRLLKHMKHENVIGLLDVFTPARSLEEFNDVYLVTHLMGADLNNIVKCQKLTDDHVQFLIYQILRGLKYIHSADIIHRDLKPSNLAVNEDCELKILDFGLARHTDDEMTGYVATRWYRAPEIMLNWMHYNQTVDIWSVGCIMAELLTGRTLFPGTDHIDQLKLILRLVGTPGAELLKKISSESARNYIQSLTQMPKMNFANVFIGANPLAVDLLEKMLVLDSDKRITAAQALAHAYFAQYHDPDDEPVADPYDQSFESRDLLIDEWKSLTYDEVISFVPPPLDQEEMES
- testMethodNotes: p38 Kinase Assay
- Assay type: biochemical
- particulars: Table 8, compounds wherein Z is N; read-out: p38 kinase (inhibition of p38 kinase, IC50)
pIC50: −log10 of the molar value.
This listing pairs molecules with measured pIC50.

Sample answers from the record:
NC(=O)c1ccc2c(-c3ccnc(NCCCO)n3)c(-c3ccc(F)cc3)nn2c1	> 6.30
Nc1nccc(-c2c(-c3ccc(F)cc3)nn3ccccc23)n1	> 6.30
CCCCNc1nccc(-c2c(-c3ccc(F)cc3)nn3ccccc23)n1	> 6.30

Memo: `Fc1ccc(-c2nn3ccccc3c2-c2ccnc(NCCc3cnc[nH]3)n2)cc1` , reported pIC50: > 6.30

Memo: `Fc1ccc(-c2nn3ccccc3c2-c2ccnc(NCc3ccccn3)n2)cc1` , reported pIC50: > 6.30

----------
This listing pairs compounds with measured IC50 at 72 h.
- testMethodNotes: Cell Based Efficacy (MTT Assay), cytotoxicity toward HFF
- particulars: human, HFF cells (human foreskin fibroblasts), Table 7, HFF cell line

Fc1ccc(-c2nn3ccccc3c2-c2ccncc2)cc1 [Example 1]	> 50 µM

Memo: OCCCNc1cc(-c2c(-c3ccc(F)cc3)nn3ccccc23)ccn1 [Example 30] , reported IC50 at 72 h: > 50 µM

Memo: Fc1ccc(-c2nn3ccccc3c2-c2ccnc(NCc3cccnc3)c2)cc1 [Example 37] , reported IC50 at 72 h: 5 to 50 µM

Memo: Nc1ncccc1C(=O)OCc1ccn2nc(-c3ccc(F)cc3)c(-c3ccncc3)c2c1 [Example 16] , reported IC50 at 72 h: > 50 µM

----------
- targetOfAssay: p38 kinase (Homo sapiens)
- Construct: GST (N); made in house; host or cells: E. coli
- testMethodNotes: p38 Kinase Assay
- Type: biochemical
- particulars: Table 9; p38 assays using Assay II; read-out: p38 IC50
pIC50: −log10 of the molar value.
valueType: pIC50

Sample answers from the record:
FC(F)(F)c1ccc(-c2nn3cc(C(F)(F)F)ccc3c2-c2ccnc(NCCN3CCCCC3)n2)cc1	5.00 to 6.00
CN(C)CCCNc1nccc(-c2c(-c3ccc(F)c(Cl)c3)nn3cc(C(F)(F)F)ccc23)n1	7.00 to 8.00
FC(F)(F)c1ccc(-c2nn3cc(C(F)(F)F)ccc3c2-c2ccnc(NCCCN3CCOCC3)n2)cc1	5.00 to 6.00
CCCN1CCN(CCNc2nccc(-c3c(-c4ccc(F)c(Cl)c4)nn4cc(C(F)(F)F)ccc34)n2)CC1	7.00 to 8.00
FC(F)(F)c1ccc(-c2nn3cc(C(F)(F)F)ccc3c2-c2ccnc(NCCN3CCCC3)n2)cc1	5.00 to 6.00

Memo: `CCN(CC)CCNc1nccc(-c2c(-c3ccc(C(F)(F)F)cc3)nn3cc(C(F)(F)F)ccc23)n1` , reported pIC50: 5.00 to 6.00

Memo: `FC(F)(F)c1ccc2c(-c3ccnc(NCCN4CCCC4)n3)c(-c3cccc(Cl)c3)nn2c1` , reported pIC50: 6.00 to 7.00

Memo: `CCN(CC)CCCCNc1nccc(-c2c(-c3cccc(Cl)c3)nn3cc(C(F)(F)F)ccc23)n1` , reported pIC50: 7.00 to 8.00

Memo: `Fc1ccc(-c2nn3cc(C(F)(F)F)ccc3c2-c2ccnc(NCCCN3CCCCC3)n2)cc1Cl` , reported pIC50: 6.00 to 7.00

Memo: `Fc1ccc(-c2nn3cc(C(F)(F)F)ccc3c2-c2ccnc(NCCN3CCCCC3)n2)cc1Cl` , reported pIC50: 6.00 to 7.00

Memo: `CN(C)CCCNc1nccc(-c2c(-c3ccc(C(F)(F)F)cc3)nn3cc(C(F)(F)F)ccc23)n1` , reported pIC50: 5.00 to 6.00

Memo: `Fc1ccc(-c2nn3cc(C(F)(F)F)ccc3c2-c2ccnc(NCCN3CCCC3)n2)cc1Cl` , reported pIC50: 6.00 to 7.00

Memo: `FC(F)(F)c1ccc2c(-c3ccnc(NCCN4CCCCC4)n3)c(-c3cccc(Cl)c3)nn2c1` , reported pIC50: 6.00 to 7.00

Memo: `CCCN1CCN(CCNc2nccc(-c3c(-c4ccc(C(F)(F)F)cc4)nn4cc(C(F)(F)F)ccc34)n2)CC1` , reported pIC50: 5.00 to 6.00

Memo: `FC(F)(F)c1ccc(-c2nn3cc(C(F)(F)F)ccc3c2-c2ccnc(NCCCN3CCCCC3)n2)cc1` , reported pIC50: 5.00 to 6.00

Memo: `CN(C)CCCNc1nccc(-c2c(-c3cccc(Cl)c3)nn3cc(C(F)(F)F)ccc23)n1` , reported pIC50: 7.00 to 8.00

Memo: `CN1CCN(CCCNc2nccc(-c3c(-c4ccc(F)cc4)nn4cc(C(F)(F)F)ccc34)n2)CC1` , reported pIC50: 7.00 to 8.00

Memo: `CCCN(CCC)CCNc1nccc(-c2c(-c3cccc(Cl)c3)nn3cc(C(F)(F)F)ccc23)n1` , reported pIC50: 6.00 to 7.00

Memo: `CC(C)N(CCNc1nccc(-c2c(-c3ccc(F)c(Cl)c3)nn3cc(C(F)(F)F)ccc23)n1)C(C)C` , reported pIC50: 6.00 to 7.00

Memo: `FC(F)(F)c1ccc2c(-c3ccnc(NCCCCN4CCCC4)n3)c(-c3cccc(Cl)c3)nn2c1` , reported pIC50: 7.00 to 8.00

Memo: `Fc1ccc(-c2nn3cc(C(F)(F)F)ccc3c2-c2ccnc(NCCN3CCOCC3)n2)cc1Cl` , reported pIC50: 7.00 to 8.00

Memo: `CCN(CC)CCNc1nccc(-c2c(-c3cccc(Cl)c3)nn3cc(C(F)(F)F)ccc23)n1` , reported pIC50: 6.00 to 7.00

Memo: `Fc1ccc(-c2nn3cc(C(F)(F)F)ccc3c2-c2ccnc(NCCCN3CCOCC3)n2)cc1Cl` , reported pIC50: 6.00 to 7.00

Memo: `FC(F)(F)c1ccc(-c2nn3cc(C(F)(F)F)ccc3c2-c2ccnc(NCCN3CCOCC3)n2)cc1` , reported pIC50: 5.00 to 6.00

Memo: `CCN(CC)CCCCNc1nccc(-c2c(-c3ccc(F)c(Cl)c3)nn3cc(C(F)(F)F)ccc23)n1` , reported pIC50: 7.00 to 8.00

Memo: `CN(C)CCCNc1nccc(-c2c(-c3ccc(F)cc3)nn3cc(C(F)(F)F)ccc23)n1` , reported pIC50: 6.00 to 7.00
